experiment: Cytotoxicity against human KBVIN cells assessed as decrease in cell viability after 72 hrs in presence of NQO1 inhibitor dicoumarol by MTT assay; format: functional, cell-based; settings: in the assay text read “SRB assay” for “MTT assay”
pIC50: −log10 of the molar value.
Observation type: pIC50

- Given smiles: "CN1CCN(c2ccc(NC3=CC(=O)c4cccnc4C3=O)cc2)CC1"
  pIC50: "< 5.52"

Could you now consider this next molecule?
(Q) Consider the molecule shown here: `CN1CCN(c2ccc(NC3=CC(=O)c4ncccc4C3=O)cc2)CC1` What is its recorded pIC50?
(A) < 5.52

---

The reader will find reported IC50 values listed item by item below.
tested on: HeLa S3; experiment: Cytotoxicity against human HeLaS3 cells assessed as decrease in cell viability after 72 hrs in presence of NQO1 inhibitor dicoumarol by MTT assay; format: functional, cell-based; conditions: HeLa S3, 72 h, in the assay text read “SRB assay” for “MTT assay”

- Given smiles: "CN1CCN(c2ccc(NC3=CC(=O)c4cccnc4C3=O)cc2)CC1"
  Target or test system: "HeLa S3"
  Result: "> 3 µM"

Could you now consider this next compound?
(Q) Consider the compound shown here: `CN1CCN(c2ccc(NC3=CC(=O)c4ncccc4C3=O)cc2)CC1` What is its recorded IC50?
(A) > 3 µM
